# Tested on: S. cerevisiae AD1-9 (efflux-pump deficient), vegetative growth in YPD
# assay_comment: growth sensitivity score (doubling time z-score vs DMSO controls); higher = slower growth, strongly negative scores also mark growth inhibition (complete suppression), active = hit call of the paper; in the data active = 2 or more and inactive = the rest
Counter-ions that a name gives are not always drawn.
Outcome codes: active, inactive

* CN1CCN(c2c(F)cc3c(=O)c(C(=O)O)cn4c3c2SCC4)CC1 [Rufloxacin hydrochloride] (stock concentration (mM, diluted 1:100): 10) | active
* COc1cc2nc(N3CCN(C(=O)C4CCCO4)CC3)nc(N)c2cc1OC (stereo not given) [Terazosin] (stock concentration (mM, diluted 1:100): 9.5) | inactive
* CC(=O)NCCCCCCNC(C)=O [Hexamethylene bisacetamide] (stock concentration (mM, diluted 1:100): 10) | inactive
* O=C(O)C[C@H](O)C[C@H](O)/C=C/c1c(C2CC2)nc2ccccc2c1-c1ccc(F)cc1 [Livalo] (stock concentration (mM, diluted 1:100): 5) | active
* C=CC1=C(C(=O)O)N2C(=O)[C@@H](NC(=O)/C(=N\OCC(=O)O)c3csc(N)n3)[C@H]2SC1 [Cefixime trihydrate] (stock concentration (mM, diluted 1:100): 10) | inactive
